- STUDY SYSTEM: Nonstructural protein 3 (Zika virus, UniProt A0A024AXB9)
- Sequence (A0A024AXB9 whole entry): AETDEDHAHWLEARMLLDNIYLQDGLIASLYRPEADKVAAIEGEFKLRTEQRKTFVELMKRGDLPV
- EXPERIMENT NOTES: Functional biochemical assay to identify treatments for viral infectious disease that targets Zika NS2B-NS3 protease. Utilizing a direct enzyme activity measurement method, reading the fluorescence intensity is used to characterize the relative potency of inhibitors as IC50.
- Parameters: species or system PRVABC59
Residues, ends and D or L forms follow the SMILES beside them. *: point of attachment. pNA = O=[N+]([O-])c1ccc(N*)cc1; Boc = CC(C)(C)OC(=O)*
OBSERVATION TYPE: IC50

>>> result("O=C(Nc1cc(Cl)cc(-c2cn(C3CCCC3)nc2C(=O)O)c1)OCc1ccccc1")
"95.2 µM"
>>> result("COc1cnccc1NC(=O)c1cccn(CC(C)C)c1=O")
"> 99.5 µM"

# return IC50 for each item in the list
1. Cc1csc(N2CCN(Cc3c[nH]c4ccccc34)CC2)n1
2. CCn1c(=O)c(N2CC[C@H](CO)C2)nc2cc(C(N)=O)ccc21
3. O=C(Nc1cc(Cl)cc(C(=O)Nc2ccc(-n3nn[nH]c3=O)cc2)c1)OCc1ccccc1
4. NCc1cccc(NC(=O)[C@@H](NC(=O)OCc2ccccc2)c2cccnc2)c1
5. CNCc1cccc(NC(=O)c2cc(Cl)cc(NC(=O)OCc3ccccc3)c2)c1

// result
["> 99.5 µM", "> 99.5 µM", "30.9 µM", "> 99.5 µM", "19.6 µM"]

# return IC50 for each item in the list
1. NC(=O)C1(N2CCCCC2)CCN(C(=O)C2CCN(c3ccc(C=O)cc3)CC2)CC1
2. Fc1cc(F)c2[nH]cc(CN3CCC(c4cscn4)CC3)c2c1F
3. O=C1Cc2c(cccc2C(=O)NC2(c3ccc(O)nc3)CC2)N1

// result
1: 57.5 µM; 2: > 99.5 µM; 3: > 25 µM

# return IC50 for each item in the list
1. O=C(Nc1ccc2c(c1)CNC2)c1cccc2[nH]cnc12
2. O=C1CC[C@H]2[C@H](CCN2C(=O)c2ccc3c(c2)CNC3)N1
3. CCc1[nH]c(-c2ccccc2)cc1C(=O)Nc1cccc(-c2nnn[nH]2)c1

// result
["2.81 µM", "> 25 µM", "> 99.5 µM"]

# return IC50 for each item in the list
1. Cn1ccc(CS(=O)(=O)N[C@@H](C(=O)Nc2cccc(CN)c2)c2ccc(OCc3ccccc3)cc2)n1
2. CSCc1nnc(SCc2ccncc2)o1

// result
1. > 99.5 µM
2. > 99.5 µM

# return IC50 for each item in the list
1. O=C(Nc1cc(Cl)cc(-c2cc(NCc3ccccc3)c(C(=O)O)cn2)c1)OCc1ccccc1
2. Cn1cc(NS(=O)(=O)c2ccc(Oc3ccccc3Cl)cc2)c(C(=O)O)n1
3. O=C(Nc1cc(-c2cccnc2)ccn1)c1cc2n(n1)CC(F)(F)C2
4. CSCC[C@H](NC(=O)OC(C)(C)C)C(=O)N1CCC[C@H]1C(=O)Nc1ccc([N+](=O)[O-])cc1 (Boc-Met-Pro-pNA)
5. N[C@H]1CCc2ccc(NC(=O)c3cc(Cl)cc4[nH]ncc34)cc21
6. Cc1c(C(=O)Nc2cc(C(=O)N(C)C)ccn2)cc(C2CC2)n1C
7. COc1cc(Cl)cc(C(=O)O)c1NS(=O)(=O)c1ccc(Oc2ccccc2Cl)cc1
8. Cc1c(F)cc(C(=O)Nc2cccc(CN)c2)c(F)c1NC(=O)OCc1ccccc1

// result
1: 14 µM; 2: > 99.5 µM; 3: > 25 µM; 4: > 99.5 µM; 5: 1.49 µM; 6: > 99.5 µM; 7: 43.6 µM; 8: 63.9 µM

# return IC50 for each item in the list
1. Cn1cc(-c2ccc([C@@H](NC(=O)OCc3ccccc3)C(=O)Nc3cccc(CN)c3)cc2)ccc1=O
2. CN(c1ccc(Oc2ccccc2Cl)cc1)S(=O)(=O)c1cc(F)c(Cl)cc1C(=O)O
3. O=c1[nH]c2cc(Cl)ccc2n1Cc1ccc(-c2nn[nH]n2)cc1
4. Cc1nccnc1Oc1ccc(S(=O)(=O)Nc2ccc(Cl)cc2C(=O)O)cc1

// result
> 99.5 µM
> 99.5 µM
> 99.5 µM
> 99.5 µM

----------
- STUDY SYSTEM: Nonstructural protein 3 (Zika virus, UniProt A0A024AXB9)
- EXPERIMENT NOTES: Functional biochemical assay to identify treatments for viral infectious disease that targets Zika NS2B-NS3 protease. Utilizing a direct enzyme activity measurement method, reading the fluorescence intensity is used to characterize the relative potency of inhibitors as IC50.
- Set-up: species or system PRVABC59
OBSERVATION TYPE: IC50

>>> result("Cc1cc(C(=O)N[C@H](CC(=O)Nc2cccc(CN)c2)c2ccc(OCc3ccccc3)c(Br)c2)sn1")
"6.83 µM"

# return IC50 for each item in the list
1. O=C1COc2c(cccc2C(=O)Nc2ccc3c(c2)CNC3)N1
2. COc1cc(Cl)cc(C(=O)Nc2ccc3c(c2)CNC3)c1
3. CSC1(C(=O)N[C@H](CC(=O)Nc2cccc(CN)c2)c2ccc(OCc3ccccc3)c(Br)c2)CCC1
4. Cc1c(C(=O)Nc2cc(C(=O)N3CCNC(=O)C3)ccn2)cc(C2CC2)n1C
5. NCc1cc(F)cc(NC(=O)c2cc(Cl)cc(NC(=O)OCc3ccccc3)c2)c1
6. NCc1cccc(NC(=O)c2cc(NC(=O)OCc3ccccc3)cc(C(N)=O)c2)c1
7. O=C(Nc1ccc2c(c1)CNC2)c1ccc(-c2cncs2)cc1
8. NCc1ccccc1NC(=O)c1cc(Cl)cc(NC(=O)OCc2ccccc2)c1

// result
1.22 µM
0.26 µM
11.8 µM
> 25 µM
5.86 µM
> 99.5 µM
> 25 µM
> 99.5 µM

# return IC50 for each item in the list
1. O=C(Nc1cc(Cl)cc(C(=O)Nc2ncc([C@H]3CCCN3)s2)c1)OCc1ccccc1
2. NCc1ccc(NS(=O)(=O)c2ccc(Oc3ccccc3Cl)cc2)cc1
3. N#C[C@]1(Nc2ccc3c(c2)CNC3)C(=O)Nc2ccccc21
4. N#Cc1csc(CSc2nnc(C(F)(F)F)s2)n1
5. O=C1COc2c(cccc2N2CCN(Cc3c[nH]c4ccccc34)CC2)N1
6. NCCCCc1ccc(NC(=O)c2cc(Cl)cc3[nH]ncc23)cc1
7. O=C(Nc1cc(Cl)cc([C@H]2C[C@@H]2c2cccc(C3CCNCC3)c2)c1)OCc1ccccc1
8. Cc1c(C(=O)Nc2cccc(C(=O)NC3CC3)c2)cc(C2CC2)n1C

// result
1. > 99.5 µM
2. > 99.5 µM
3. 27.4 µM
4. > 99.5 µM
5. 69.8 µM
6. 19.9 µM
7. 2.64 µM
8. > 25 µM

# return IC50 for each item in the list
1. NCc1cccc(NC(=O)[C@H]2c3ccccc3CCN2C(=O)OCc2ccccc2)c1
2. CC(=O)N1Cc2ccc(NC(=O)c3cc(Cl)cc4[nH]ncc34)cc2C1
3. O=C(O)c1sc2cccnc2c1Br
4. NC1CN(c2ncccc2NS(=O)(=O)c2ccc(Oc3ccccc3Cl)cc2)C1

// result
> 99.5 µM
> 25 µM
> 99.5 µM
> 99.5 µM

----------
- STUDY SYSTEM: UniProt A0A024AXB9
- EXPERIMENT NOTES: Functional biochemical assay to identify treatments for viral infectious disease that targets Zika NS2B-NS3 protease. Utilizing a direct enzyme activity measurement method, reading the fluorescence intensity is used to characterize the relative potency of inhibitors as IC50.
- Parameters: species or system PRVABC59
Exercise: state measured pIC50 for each of the molecules provided.
Answers are plain numbers, as −log10 of the molar value.

# return pIC50 for each item in the list
1. CCCc1sc(C(=O)Nc2ccc3c(c2)CNC3)cc1CC
2. Cc1ccc(CN)cc1-c1cccc([C@H](NC(=O)OCc2ccccc2)C(=O)Nc2cccc(CN)c2)c1
3. CCn1nc(-c2ccccc2)cc1NS(=O)(=O)c1ccc(Cl)cc1C(=O)O
4. C[C@@H](N)c1ccc(NC(=O)c2cc(Cl)cc3[nH]ncc23)cc1

// result
1: 4.70; 2: 4.74; 3: 4.53; 4: 5.54

----------
- STUDY SYSTEM: UniProtKB A0A024AXB9
- EXPERIMENT NOTES: Functional biochemical assay to identify treatments for viral infectious disease that targets Zika NS2B-NS3 protease. Utilizing a direct enzyme activity measurement method, reading the fluorescence intensity is used to characterize the relative potency of inhibitors as IC50.
- Set-up: species or system PRVABC59
Exercise: state measured IC50 for each of the compounds provided.

# count of solved cases: 2
>>> result("NCc1cc(Cl)cc(C(=O)Nc2cccc(-c3nn[nH]n3)c2)c1")
"> 99.5 µM"
>>> result("NC[C@H]1C[C@H](NC(=O)[C@@H](NC(=O)OCc2ccccc2)c2ccc(OCc3ccccc3)cc2)C1")
"> 99.5 µM"

Next, consider the following compound.
// query Quick check: IC50 of `Cn1nnnc1-c1cccc(NC(=O)c2cc(Cl)cc(NC(=O)OCc3ccccc3)c2)c1` ?
// result > 99.5 µM
